- test system: LC3B (Homo sapiens)
- measurement notes: Fluorescence Polarization (FP) Assay: displacement of FITC-labeled peptide from GST-LC3B
- Assay type: binding
- details: Fluorescence Polarization assay; GST-LC3B 180 nM, FITC-labeled peptide 18 nM, 25° C.; read-out: IC50
pIC50: −log10 of the molar value.
readout label: pIC50

Previously resolved entries follow.
[[record]]
compound = "Cc1ccc2c(C3CC(=O)C(=CN(C)C)C(=O)C3)c[nH]c2c1 (stereo not shown) [Compound 293]"
test_result = "4.82 to 5.52"

[[record]]
compound = "CN(C)C=C1C(=O)CC(c2ccc(C(F)(F)F)cc2)CC1=O (stereo not shown) [Compound 254]"
test_result = "> 5.52"

[[record]]
compound = "O=C1CC(C2CCOCC2)CC(=O)C1=CNCCN1CCN(CCO)CC1 (stereo not shown) [Compound 64]"
test_result = "3.00 to 4.00"

[[record]]
compound = "COC(=O)CNC=C1C(=O)CC(c2ccccc2)CC1=O (stereo not shown) [Compound 129]"
test_result = "4.00 to 4.82"

[[record]]
compound = "Cc1ccc(NC(=O)N2CCN(CCNC=C3C(=O)CC(c4ccc(C)cc4)CC3=O)CC2)cc1 (stereo not shown) [Compound 224]"
test_result = "> 5.52"


compound O=C1CC(c2cccc3[nH]c(Br)c(Cl)c23)CC(=O)C1=CNCCN1CCN(CCO)CC1 (stereo not shown) [Compound 405] , pIC50 observed: > 5.52

Value of pIC50 reported for the compound CC1(c2ccccc2)CC(=O)C(=CNCCN2CCN(CCO)CC2)C(=O)C1 (stereo not shown) [Compound 29] is 3.00 to 4.00

* * *

- test system: UniProtKB Q9GZQ8
- measurement notes: Fluorescence Polarization (FP) Assay: displacement of FITC-labeled peptide from GST-LC3B
- Assay type: binding
- details: Fluorescence Polarization assay; GST-LC3B 180 nM, FITC-labeled peptide 18 nM, 25° C.; read-out: IC50
readout label: IC50

[[record]]
compound = "O=C1CC(c2cnc(N3CCOCC3)nc2)CC(=O)C1=CNCCN1CCN(CCO)CC1 (centres unmarked)"
test_system = "UniProtKB Q9GZQ8"
test_result = "15 to 100 µM"

[[record]]
compound = "CN(C)CCNC=C1C(=O)CC(c2c(F)c(F)cc(F)c2F)CC1=O (centres unmarked)"
test_system = "UniProtKB Q9GZQ8"
test_result = "< 3 µM"

[[record]]
compound = "CC(C)(C)C(=O)N1CCN(CCNC=C2C(=O)CC(c3ccccc3)CC2=O)CC1 (centres unmarked)"
test_system = "UniProtKB Q9GZQ8"
test_result = "< 3 µM"

[[record]]
compound = "CN(C)CCNC=C1C(=O)CC(c2c(F)cccc2Cl)CC1=O (centres unmarked)"
test_system = "UniProtKB Q9GZQ8"
test_result = "< 3 µM"

[[record]]
compound = "CC1(C)C(=O)C(=CNCCN2CCN(CCO)CC2)C(=O)CC1c1ccccc1 (centres unmarked)"
test_system = "UniProtKB Q9GZQ8"
test_result = "3 to 15 µM"

[[record]]
compound = "CC(C)(C)OC(=O)C1C(=O)C(=CNCCN2CCN(CCO)CC2)C(=O)CC1c1ccccc1 (centres unmarked)"
test_system = "UniProtKB Q9GZQ8"
test_result = "3 to 15 µM"


CN(C)CCNC=C1C(=O)CC(c2ccccc2I)CC1=O (centres unmarked) tested on UniProtKB Q9GZQ8 gave IC50: < 3 µM

Value sought: IC50, system UniProtKB Q9GZQ8, item CN1CCN(c2ccc(C3CC(=O)C(=CNCCN4CCN(CCO)CC4)C(=O)C3)cc2)CC1 (centres unmarked) . Result: 100 to 1000 µM

Tested on UniProtKB Q9GZQ8: CCCNC(=O)N1CCN(CCNC=C2C(=O)CC(c3ccc(C)cc3)CC2=O)CC1 (centres unmarked) . Observed IC50: < 3 µM

Summary line: CN(C)CCNC=C1C(=O)CC(c2ccc(-c3ccccc3)s2)CC1=O (centres unmarked) , UniProtKB Q9GZQ8, reported IC50 = < 3 µM

Summary: O=C1CC(c2ccc(-n3ccnc3)cc2)CC(=O)C1=CNCCN1CCN(CCO)CC1 (centres unmarked) , UniProtKB Q9GZQ8, IC50 = 15 to 100 µM
